Please respond with reported Anti-PSMA Fab signal in the presence of PSMA for every item in the list.
target.entity: T1, Anti-PSMA Fab (SEQ ID NOs: 19, 20)
T1 construct: Biotinylated and captured on neutravidin coated plates in the phage ELISA; also called 006 PSMA Fab
experimental.protocol: phage binding ELISA; PSMA Fab on plate pre-incubated with PSMA antigen as competitor, anti-M13-HRP detection
Where no end group is shown, it is not given here.
Answer using only a numeral; do not append any unit.

Prompt: Quick one: Anti-PSMA Fab signal in the presence of PSMA of ASPMCIPEWMCSGV [Phage-2037] ?
Completion: 0.0687

Prompt: Repeat with IVKWCTPEWMCVGF [Phage-2034]
Completion: 0.154

Prompt: Repeat with VHKWCIPSWMCEAP [Phage-2040]
Completion: 0.0914

Prompt: Also, VEKWCIPSWMCAEV (cysteine pairing not given here; also: fused to phage pIII, pIII sequence and linker not given here) [Phage-2031] please.
Completion: 0.086
